Attribution: patent US5955500A

compounds and their reported Mean arterial pressure
System: canine heart
Conditions: 0.2 mg/kg i.v., 5 min, mean ± SE
Method: Fourteen adult mongrel dogs of either sex weighing between 19 and 25 kg were prepared for chronic electrophysiologic investigation by implanting epicardial electrodes and an indwelling aortic catheter. […] The His bundle electrode (HBE) was advanced into the base of the interatrial septum from the aortic root. […] The HBE was slowly advanced parallel to the aorta, inferiorly and slightly anteriorly until a well discernible His potential was recorded. […]
measurementName: Mean arterial pressure (mmHg)

{"compound": "COc1ccc(CCN(C)CCCC(C#N)(c2ccc(OC)c(OC)c2)C(C)C)cc1OC (racemic) [80/20S]", "measurementName": "Mean arterial pressure", "resultNumber": 98}
{"compound": "COc1ccc(CCN(C)CCC[C@](C#N)(c2ccc(OC)c(OC)c2)C(C)C)cc1OC [R-verapamil, reference compound]", "measurementName": "Mean arterial pressure", "resultNumber": 92}
{"compound": "COc1ccc(CCN(C)CCCC(C#N)(c2ccc(OC)c(OC)c2)C(C)C)cc1OC (racemic) [90/10S]", "measurementName": "Mean arterial pressure", "resultNumber": 101}
{"compound": "COc1ccc(CCN(C)CCCC(C#N)(c2ccc(OC)c(OC)c2)C(C)C)cc1OC (racemic) [20/80S]", "measurementName": "Mean arterial pressure", "resultNumber": 98}

###

Tested on: canine heart
Conditions: 0.2 mg/kg i.v., 4 min, mean ± SE
Measured AH time of individual entries

{"compound": "COc1ccc(CCN(C)CCCC(C#N)(c2ccc(OC)c(OC)c2)C(C)C)cc1OC (racemic) [90/10S]", "AH time (ms)": 97}
{"compound": "COc1ccc(CCN(C)CCCC(C#N)(c2ccc(OC)c(OC)c2)C(C)C)cc1OC (racemic) [80/20S]", "AH time (ms)": 115}
{"compound": "COc1ccc(CCN(C)CCC[C@](C#N)(c2ccc(OC)c(OC)c2)C(C)C)cc1OC [R-verapamil, reference compound]", "AH time (ms)": 98}
{"compound": "COc1ccc(CCN(C)CCCC(C#N)(c2ccc(OC)c(OC)c2)C(C)C)cc1OC (racemic) [20/80S]", "AH time (ms)": 127}

###

Test system: canine heart
Conditions: 0.1 mg/kg i.v., 5 min, mean ± SE
Examples of compounds with documented Mean arterial pressure follow.

{"compound": "COc1ccc(CCN(C)CCCC(C#N)(c2ccc(OC)c(OC)c2)C(C)C)cc1OC (racemic) [20/80S]", "testedOn": "canine heart", "Mean arterial pressure": "101 ± 4 mmHg"}
{"compound": "COc1ccc(CCN(C)CCCC(C#N)(c2ccc(OC)c(OC)c2)C(C)C)cc1OC (racemic) [80/20S]", "testedOn": "canine heart", "Mean arterial pressure": "100 ± 3 mmHg"}
{"compound": "COc1ccc(CCN(C)CCCC(C#N)(c2ccc(OC)c(OC)c2)C(C)C)cc1OC (racemic) [90/10S]", "testedOn": "canine heart", "Mean arterial pressure": "99 ± 3 mmHg"}
{"compound": "COc1ccc(CCN(C)CCC[C@](C#N)(c2ccc(OC)c(OC)c2)C(C)C)cc1OC [R-verapamil, reference compound]", "testedOn": "canine heart", "Mean arterial pressure": "95 ± 3 mmHg"}

###

System: canine heart
Details: 0.1 mg/kg i.v., 1 min, mean ± SE
Method: Fourteen adult mongrel dogs of either sex weighing between 19 and 25 kg were prepared for chronic electrophysiologic investigation by implanting epicardial electrodes and an indwelling aortic catheter. […] The His bundle electrode (HBE) was advanced into the base of the interatrial septum from the aortic root. […] The HBE was slowly advanced parallel to the aorta, inferiorly and slightly anteriorly until a well discernible His potential was recorded. […]

{"compound": "COc1ccc(CCN(C)CCCC(C#N)(c2ccc(OC)c(OC)c2)C(C)C)cc1OC (racemic) [20/80S]", "Heart rate / beats per min": 143}
{"compound": "COc1ccc(CCN(C)CCC[C@](C#N)(c2ccc(OC)c(OC)c2)C(C)C)cc1OC [R-verapamil, reference compound]", "Heart rate / beats per min": 95}
{"compound": "COc1ccc(CCN(C)CCCC(C#N)(c2ccc(OC)c(OC)c2)C(C)C)cc1OC (racemic) [80/20S]", "Heart rate / beats per min": 126}
{"compound": "COc1ccc(CCN(C)CCCC(C#N)(c2ccc(OC)c(OC)c2)C(C)C)cc1OC (racemic) [90/10S]", "Heart rate / beats per min": 103}
